# tested_target: EGFR on EGFR positive non-small cell lung cancer cells NCI-H1650 (UniProt P00533 25-1210)
# protocol_details: cell-based or functional assay
Label rule, in plain words: H1650 GFP Flourescence EC50 of 1 µg/mL and up is Satisfied, under 1 µg/mL is Not satisfied.

binder | label_class
AbG-ZT (antibody, human IgG1, kappa, V domains shown, synthon ZT on reduced interchain cysteines; average DAR 1.6 per ADC) VH: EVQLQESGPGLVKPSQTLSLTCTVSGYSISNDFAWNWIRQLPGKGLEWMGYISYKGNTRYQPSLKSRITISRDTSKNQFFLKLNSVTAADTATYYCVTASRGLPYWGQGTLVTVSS VL: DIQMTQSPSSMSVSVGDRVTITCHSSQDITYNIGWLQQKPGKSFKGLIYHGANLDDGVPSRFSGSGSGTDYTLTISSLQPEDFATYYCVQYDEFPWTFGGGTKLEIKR | Not satisfied

Lookup: Determine whether measured H1650 GFP Flourescence EC50 meets or exceeds 1 µg/mL for AbA-YY (antibody, human IgG1, kappa, V domains shown, synthon YY on reduced interchain cysteines; average DAR 2.2 per ADC) VH: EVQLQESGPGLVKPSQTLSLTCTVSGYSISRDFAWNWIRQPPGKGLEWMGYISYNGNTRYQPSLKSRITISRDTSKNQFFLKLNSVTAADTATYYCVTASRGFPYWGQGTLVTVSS VL: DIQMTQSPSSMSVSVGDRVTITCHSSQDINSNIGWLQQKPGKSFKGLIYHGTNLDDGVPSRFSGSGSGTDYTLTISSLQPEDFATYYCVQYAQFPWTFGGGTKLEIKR
Found: Satisfied

Lookup: Quick check: does AbB-CZ (antibody, human IgG1, kappa, V domains shown, synthon CZ on reduced interchain cysteines; average DAR 3.5 per ADC) VH: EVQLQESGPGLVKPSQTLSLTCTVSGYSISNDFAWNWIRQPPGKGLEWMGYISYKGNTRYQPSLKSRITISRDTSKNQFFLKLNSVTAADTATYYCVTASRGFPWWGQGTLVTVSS VL: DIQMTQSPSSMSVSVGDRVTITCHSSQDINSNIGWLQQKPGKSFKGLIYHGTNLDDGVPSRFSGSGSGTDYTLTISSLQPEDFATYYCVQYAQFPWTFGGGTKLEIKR have H1650 GFP Flourescence EC50 greater than or equal to 1 µg/mL?
Found: Not satisfied

Lookup: Record AbG-SR (antibody, human IgG1, kappa, V domains shown, synthon SR on reduced interchain cysteines; average DAR 2.8 per ADC) VH: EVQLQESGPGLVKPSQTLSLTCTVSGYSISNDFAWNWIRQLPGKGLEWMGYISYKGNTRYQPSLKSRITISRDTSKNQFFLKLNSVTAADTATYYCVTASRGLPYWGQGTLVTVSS VL: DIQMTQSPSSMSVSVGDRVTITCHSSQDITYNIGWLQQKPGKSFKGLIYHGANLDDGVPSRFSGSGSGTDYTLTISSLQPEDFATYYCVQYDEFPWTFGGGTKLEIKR ; criterion: H1650 GFP Flourescence EC50 no lower than 1 µg/mL. Met?
Found: Satisfied

Lookup: # check: H1650 GFP Flourescence EC50 of AbK-XW (antibody, human IgG1, kappa, V domains shown, synthon XW on reduced interchain cysteines; average DAR 2.8 per ADC) VH: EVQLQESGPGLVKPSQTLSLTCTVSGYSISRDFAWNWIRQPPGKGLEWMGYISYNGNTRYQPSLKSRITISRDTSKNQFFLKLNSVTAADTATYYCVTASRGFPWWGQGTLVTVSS VL: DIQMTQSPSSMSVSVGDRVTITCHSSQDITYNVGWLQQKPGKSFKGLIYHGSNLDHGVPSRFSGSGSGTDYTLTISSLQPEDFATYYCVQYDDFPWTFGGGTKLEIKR is greater than or equal to 1 µg/mL
Found: Satisfied
